Molecular target: BRAF G466V (Homo sapiens, UniProt P15056, G466V)
Construct: Horizon Discovery (HCT-116 BRAF−/− cells); host or cells: HCT-116 BRAF−/− cells, clone 8, lentiviral transduction
Sequence (P15056 whole entry G466V): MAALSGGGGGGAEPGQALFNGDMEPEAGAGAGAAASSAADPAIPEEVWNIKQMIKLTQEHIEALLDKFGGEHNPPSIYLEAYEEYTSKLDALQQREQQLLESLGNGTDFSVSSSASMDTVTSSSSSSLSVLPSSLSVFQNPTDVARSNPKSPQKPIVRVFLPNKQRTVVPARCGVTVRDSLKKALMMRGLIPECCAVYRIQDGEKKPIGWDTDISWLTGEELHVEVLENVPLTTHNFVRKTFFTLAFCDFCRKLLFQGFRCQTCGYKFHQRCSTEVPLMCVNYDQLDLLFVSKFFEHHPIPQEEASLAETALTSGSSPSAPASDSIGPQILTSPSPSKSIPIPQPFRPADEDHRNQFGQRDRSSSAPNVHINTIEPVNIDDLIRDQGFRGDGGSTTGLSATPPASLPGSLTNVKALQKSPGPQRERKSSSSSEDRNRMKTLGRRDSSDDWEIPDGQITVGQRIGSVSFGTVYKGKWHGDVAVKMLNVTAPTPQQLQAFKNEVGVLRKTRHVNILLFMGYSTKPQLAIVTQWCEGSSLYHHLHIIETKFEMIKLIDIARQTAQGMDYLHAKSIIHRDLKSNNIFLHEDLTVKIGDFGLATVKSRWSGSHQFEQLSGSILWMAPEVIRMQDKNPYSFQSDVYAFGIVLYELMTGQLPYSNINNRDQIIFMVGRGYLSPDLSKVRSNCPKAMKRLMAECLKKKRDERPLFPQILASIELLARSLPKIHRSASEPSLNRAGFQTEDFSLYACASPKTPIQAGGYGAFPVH
Test: BRAF HiBiT degradation assay, C-terminal HiBiT-tagged BRAF G466V overexpressed in HCT-116 BRAF−/− cells (clone 8), Nano-Glo HiBiT Lytic assay
Format: cell-based
Conditions: BRAF G466V (Class 3), HCT-116 BRAF−/− cells; DC50 at 50% degradation
Listed here are molecules together with their documented DC50.

These solved cases illustrate the format of a correct answer.
{"molecule": "CCCS(=O)(=O)Nc1cc(Cl)cc(-c2cn(-c3ccc(N4CCN(CC5CCN(c6ccc(N7CCC(=O)NC7=O)cc6)CC5)[C@@H](C)C4)cc3)nc2-c2ccncc2)c1F", "target entity": "BRAF G466V (Homo sapiens, UniProt P15056, G466V)", "observable": "DC50", "test result": "> 500 nM"}
{"molecule": "CCN(C)S(=O)(=O)Nc1cc(F)cc(-c2cn(-c3ccc(N4CCN(CC5CCN(c6ccc(C7CCC(=O)NC7=O)cn6)CC5)CC4)cc3)nc2-c2ccncc2)c1F (racemic)", "target entity": "BRAF G466V (Homo sapiens, UniProt P15056, G466V)", "observable": "DC50", "test result": "< 10 nM"}

Attention now turns to another entry.
Query: What value of DC50 has been recorded for this entry: "CCN(C)S(=O)(=O)Nc1cccc(-c2cn(-c3ccc(N4CCN(CC5CCN(c6ccc([C@H]7CCC(=O)NC7=O)cn6)CC5)CC4)cc3F)nc2-c2ccncc2)c1F"
Reply: 50 to 500 nM
